# assayed_target: TRIP8b-HCN1c40 (Homo sapiens (Human))
# Sequence (Q8IYB4 265-626): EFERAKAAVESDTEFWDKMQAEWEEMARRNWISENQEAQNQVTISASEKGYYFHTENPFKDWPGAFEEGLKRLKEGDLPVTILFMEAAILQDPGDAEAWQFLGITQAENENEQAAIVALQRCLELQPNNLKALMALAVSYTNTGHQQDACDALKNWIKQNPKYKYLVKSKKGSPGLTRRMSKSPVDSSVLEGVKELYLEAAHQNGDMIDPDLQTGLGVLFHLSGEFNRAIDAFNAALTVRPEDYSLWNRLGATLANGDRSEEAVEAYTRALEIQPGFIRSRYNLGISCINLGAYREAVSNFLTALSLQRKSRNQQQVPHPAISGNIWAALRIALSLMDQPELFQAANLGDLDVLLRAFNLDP
# test_protocol: TRIP8b-HCN1c40 AlphaScreen assay
# Assay type: binding
# test_context: activity ranges; read-out: TRIP8b-HCN1c40 Alphascreen IC50 activity
# Procedure: AlphaScreen Assay. 20 nM ofGST-tagged HCNlc40 protein (corresponding to the C terminal 40 amino acids of HCN1) was incubated with 200 nM of His-tagged TRIP8b(241-602) and varying concentrations of the test compound as described in our prior report (Han et al., 2015). […] AlphaScreen signal was quantified using a PerkinElmer (Waltham, MA) EnSpire multimode plate reader.
The following molecules are listed with their measured IC50 values.

molecule=CN1CCN(Cc2ccc(-c3ccc(Cl)c(Cl)c3)cc2OCC(=O)NCc2ccc(Cl)cc2)CC1 value_reported="1 to 2 µM"
molecule=CN1CCN(Cc2cc(-c3ccc(Cl)c(C(F)(F)F)c3)ccc2OCC(=O)Nc2ccc(Cl)c(Cl)c2)CC1 value_reported="1 to 2 µM"
molecule="CC(Oc1ccc(-c2ccc(F)cc2)cc1CN1CCN(C)CC1)C(=O)NCc1ccc(Cl)cc1 (stereo not drawn)" value_reported="2 to 5 µM"
molecule=CN1CCN(Cc2cc(-c3ccc(Cl)c(Cl)c3)ccc2COC(=O)Nc2ccc3c(c2)OCO3)CC1 value_reported="< 1 µM"
molecule=CN1CCN(Cc2cc(-c3ccc(Cl)c(Cl)c3)ccc2OCCNS(=O)(=O)c2ccc(Cl)cc2)CC1 value_reported="1 to 2 µM"
molecule="CC(Oc1ccc(-c2ccc(C(F)(F)F)cc2)cc1CN1CCN(C)CC1)C(=O)NCc1ccc(Cl)cc1 (stereo not drawn)" value_reported="2 to 5 µM"
molecule=Cc1ccc(-c2ccc(OCC(=O)NCc3ccc(F)cc3)c(CN3CCC(N(C)C)CC3)c2)cc1 value_reported="10 to 20 µM"
molecule=Cc1cc(C)c(-c2ccc(OCC(=O)NCc3ccc(Cl)cc3)c(CN3CCNCC3)c2)c(C)c1 value_reported="2 to 5 µM"

Request: Name the recorded IC50 of CC(Oc1ccc(-c2ccc(F)c(C(F)(F)F)c2)cc1CN1CCN(C)CC1)C(=O)NCc1ccc(Cl)cc1 (stereo not drawn) , assay system TRIP8b-HCN1c40 (Homo sapiens (Human)).
Result: < 1 µM

Request: Check TRIP8b-HCN1c40 (Homo sapiens (Human)) data and give IC50 for Cc1ccc(-c2ccc(OCC(=O)Nc3ccc(Cl)cc3)c(CN3CCC(N(C)C)CC3)c2)cc1 .
Result: 5 to 10 µM

Request: Please tell me the measured IC50 for CN1CCN(Cc2cc(-c3ccc(Cl)c(Cl)c3)ccc2OCC(=O)NCc2cccc(Cl)c2)CC1 ; system: TRIP8b-HCN1c40 (Homo sapiens (Human)).
Result: 1 to 2 µM

Request: Provide IC50, system TRIP8b-HCN1c40 (Homo sapiens (Human)), entry CN1CCN(Cc2cc(-c3ccc(Cl)cc3Cl)ccc2OCC(=O)NCc2ccc(Cl)cc2)CC1
Result: < 1 µM

Request: Under TRIP8b-HCN1c40 (Homo sapiens (Human)): report IC50 of C=Cc1ccc(-c2ccc(OCC(=O)NCc3ccc(Cl)cc3)c(CN3CCN(C)CC3)c2)cc1 .
Result: 2 to 5 µM

Request: GET IC50 where system = TRIP8b-HCN1c40 (Homo sapiens (Human)) and item = COc1ccc(NC(=O)COc2ccc(-c3cccc(C)c3)cc2CN2CC[C@H](N)C2)cn1
Result: 20 to 40 µM

Request: Look up and report measured IC50 (TRIP8b-HCN1c40 (Homo sapiens (Human))) for the following molecule: CN1CCN(Cc2cc(-c3ccncc3)ccc2OCC(=O)Nc2ccc(Cl)c(Cl)c2)CC1
Result: 5 to 10 µM

Request: Report value only: IC50, TRIP8b-HCN1c40 (Homo sapiens (Human)), CN1CCN(Cc2cc(-c3ccc(Cl)c(Cl)c3)ccc2OCC(=O)NCCc2ccc(C#N)cc2)CC1
Result: 2 to 5 µM

Request: Jot down IC50 (TRIP8b-HCN1c40 (Homo sapiens (Human))) of Cc1ccc(-c2ccc(OCC(=O)NCc3cccc(Cl)c3)c(CN3CCC(N(C)C)CC3)c2)cc1 .
Result: 2 to 5 µM

Request: Look up and report IC50, with TRIP8b-HCN1c40 (Homo sapiens (Human)) as system, for CC(Oc1ccc(-c2ccc(Cl)c(Cl)c2)cc1CN1CCN(C)CC1)C(=O)NCc1ccc(Cl)cc1 (stereo not drawn)
Result: < 1 µM

Request: State measured IC50 of the molecule CN1CCN(Cc2cc(-c3ccc(C(F)(F)F)cc3)ccc2OCC(=O)NCc2ccc(Cl)cc2)CC1 with TRIP8b-HCN1c40 (Homo sapiens (Human)).
Result: 2 to 5 µM

Request: Please indicate recorded IC50 of CN1CCN(Cc2cc(-c3ccc(Cl)c(Cl)c3)ccc2OCC(=O)N2CCc3cc(Cl)c(Cl)cc32)CC1 measured with TRIP8b-HCN1c40 (Homo sapiens (Human)).
Result: < 1 µM

Request: Give TRIP8b-HCN1c40 (Homo sapiens (Human)) IC50 for the following molecule: CC(Oc1ccc(-c2cc(Cl)cc(Cl)c2)cc1CN1CCN(C)CC1)C(=O)NCc1ccc(Cl)cc1 (stereo not drawn)
Result: < 1 µM

Request: Give IC50 for this entry on TRIP8b-HCN1c40 (Homo sapiens (Human)): Cc1cccc(-c2ccc(OCC(=O)Nc3ccc(O)cc3)c(CN3CC[C@H](N)C3)c2)c1
Result: 10 to 20 µM

Request: Param request: IC50 | system TRIP8b-HCN1c40 (Homo sapiens (Human)) | item Cc1cccc(-c2ccc(OCC(=O)NCc3ccc(Cl)cc3)c(CN3CC[C@H](N)C3)c2)c1
Result: 5 to 10 µM
